Target: UniProt P08183
Sequence (P08183 whole entry): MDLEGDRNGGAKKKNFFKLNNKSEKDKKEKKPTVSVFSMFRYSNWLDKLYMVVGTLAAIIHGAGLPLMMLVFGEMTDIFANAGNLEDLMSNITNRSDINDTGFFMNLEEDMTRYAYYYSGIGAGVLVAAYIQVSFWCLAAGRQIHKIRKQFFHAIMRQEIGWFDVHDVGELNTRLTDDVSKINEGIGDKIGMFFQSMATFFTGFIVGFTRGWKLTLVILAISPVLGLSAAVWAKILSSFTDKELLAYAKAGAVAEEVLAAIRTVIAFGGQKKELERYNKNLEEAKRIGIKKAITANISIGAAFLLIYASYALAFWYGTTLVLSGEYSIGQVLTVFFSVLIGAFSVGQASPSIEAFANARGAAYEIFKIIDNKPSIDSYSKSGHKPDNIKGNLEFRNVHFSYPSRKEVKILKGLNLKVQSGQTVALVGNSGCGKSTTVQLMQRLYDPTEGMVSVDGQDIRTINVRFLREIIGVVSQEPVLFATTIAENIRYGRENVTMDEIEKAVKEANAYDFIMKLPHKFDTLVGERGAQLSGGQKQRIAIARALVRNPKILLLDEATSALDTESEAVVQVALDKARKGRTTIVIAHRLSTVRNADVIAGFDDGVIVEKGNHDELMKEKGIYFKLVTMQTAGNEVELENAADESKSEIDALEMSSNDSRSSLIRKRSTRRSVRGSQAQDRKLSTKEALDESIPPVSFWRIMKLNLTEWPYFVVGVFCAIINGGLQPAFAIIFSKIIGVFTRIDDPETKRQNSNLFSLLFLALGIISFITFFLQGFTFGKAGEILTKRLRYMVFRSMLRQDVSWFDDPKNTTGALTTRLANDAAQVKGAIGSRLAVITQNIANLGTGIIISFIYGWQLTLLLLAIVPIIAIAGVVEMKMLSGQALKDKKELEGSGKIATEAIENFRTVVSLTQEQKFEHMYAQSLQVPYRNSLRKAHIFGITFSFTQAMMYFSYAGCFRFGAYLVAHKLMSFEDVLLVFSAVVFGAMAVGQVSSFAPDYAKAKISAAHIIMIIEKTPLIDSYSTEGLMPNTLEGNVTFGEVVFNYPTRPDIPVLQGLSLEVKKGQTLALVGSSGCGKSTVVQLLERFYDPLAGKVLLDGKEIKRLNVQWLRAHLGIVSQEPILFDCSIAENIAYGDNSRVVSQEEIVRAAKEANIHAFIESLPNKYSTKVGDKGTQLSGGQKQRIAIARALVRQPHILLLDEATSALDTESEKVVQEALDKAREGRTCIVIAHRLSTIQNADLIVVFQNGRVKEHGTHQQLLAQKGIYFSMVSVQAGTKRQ
Assay: Transport of digoxin and ginsenosides across L-MDR1 cell monolayers (efflux ratio)
Assay type: in vitro ADME
Details: human, LLC-PK1, pH 7.4, with verapamil 10 µM, L-MDR1 cells, presence of 10 µM verapamil; read-out: Efflux ratio (Papp BL-AP / Papp AP-BL)
OBSERVABLE: efflux ratio at 2 h, 100 µg/mL
Answers are plain numbers.

Here are 2 molecules together with their reported answers.
* CC(C)=CCC[C@](C)(O[C@@H]1O[C@H](CO[C@@H]2O[C@@H](CO)[C@H](O)[C@H]2O)[C@@H](O)[C@H](O)[C@H]1O)[C@H]1CC[C@]2(C)[C@@H]1[C@H](O)C[C@@H]1[C@@]3(C)CC[C@H](O[C@@H]4O[C@H](CO)[C@@H](O)[C@H](O)[C@H]4O[C@@H]4O[C@H](CO)[C@@H](O)[C@H](O)[C@H]4O)C(C)(C)[C@@H]3CC[C@]12C [Rc, ginsenoside Rc] | 1.42
* CC(C)=CCC[C@](C)(O[C@@H]1O[C@H](CO)[C@@H](O)[C@H](O)[C@H]1O)[C@H]1CC[C@]2(C)[C@@H]1[C@H](O)C[C@@H]1[C@@]3(C)CC[C@H](O)C(C)(C)[C@@H]3[C@@H](O[C@@H]3O[C@H](CO)[C@@H](O)[C@H](O)[C@H]3O[C@@H]3O[C@@H](C)[C@H](O)[C@@H](O)[C@H]3O)C[C@]12C [Re, ginsenoside Re] | 2.36

# ---- query molecule ----
Need efflux ratio at 2 h, 100 µg/mL of CC(C)=CCC[C@](C)(O[C@@H]1O[C@H](CO[C@@H]2O[C@H](CO)[C@@H](O)[C@H](O)[C@H]2O)[C@@H](O)[C@H](O)[C@H]1O)[C@H]1CC[C@]2(C)[C@@H]1[C@H](O)C[C@@H]1[C@@]3(C)CC[C@H](O[C@@H]4O[C@H](CO)[C@@H](O)[C@H](O)[C@H]4O[C@@H]4O[C@H](CO)[C@@H](O)[C@H](O)[C@H]4O)C(C)(C)[C@@H]3CC[C@]12C [Rb1, ginsenoside Rb1] , thanks.
1.57

---

Experiment: Rat plasma pharmacokinetics after single-dose vehicle/SLE and digoxin or GE
Type: in vivo, Sprague-Dawley rats
Conditions: female, Sprague-Dawley, rat, plasma, po, rats, single SLE 500 mg/kg ig, 2 h later digoxin 0.5 mg/kg or GE 120 mg/kg ig
Would you kindly list Cmax for each of these molecules?
Give bare numbers, in ng/mL.

- CC(C)=CCC[C@](C)(O[C@@H]1O[C@H](CO[C@@H]2OC[C@H](O)[C@H](O)[C@H]2O)[C@@H](O)[C@H](O)[C@H]1O)[C@H]1CC[C@]2(C)[C@@H]1[C@H](O)C[C@@H]1[C@@]3(C)CC[C@H](O[C@@H]4O[C@H](CO)[C@@H](O)[C@H](O)[C@H]4O[C@@H]4O[C@H](CO)[C@@H](O)[C@H](O)[C@H]4O)C(C)(C)[C@@H]3CC[C@]12C [Rb2, ginsenoside Rb2]: 541
- CC(C)=CCC[C@](C)(O[C@@H]1O[C@H](CO[C@@H]2O[C@H](CO)[C@@H](O)[C@H](O)[C@H]2O)[C@@H](O)[C@H](O)[C@H]1O)[C@H]1CC[C@]2(C)[C@@H]1[C@H](O)C[C@@H]1[C@@]3(C)CC[C@H](O[C@@H]4O[C@H](CO)[C@@H](O)[C@H](O)[C@H]4O[C@@H]4O[C@H](CO)[C@@H](O)[C@H](O)[C@H]4O)C(C)(C)[C@@H]3CC[C@]12C [Rb1, ginsenoside Rb1]: 651

Need Cmax of CC(C)=CCC[C@](C)(O[C@@H]1O[C@H](CO)[C@@H](O)[C@H](O)[C@H]1O)[C@H]1CC[C@]2(C)[C@@H]1[C@H](O)C[C@@H]1[C@@]3(C)CC[C@H](O[C@@H]4O[C@H](CO)[C@@H](O)[C@H](O)[C@H]4O[C@@H]4O[C@H](CO)[C@@H](O)[C@H](O)[C@H]4O)C(C)(C)[C@@H]3CC[C@]12C [Rd, ginsenoside Rd] , thanks.
227

Source listed as paper PMC4055595.
